Tested on: CD8+ T cells
Assay: WT-1 peptide specific CTL responses in vivo (ELISPOT)
Conditions: mouse
Description: Mouse footpads of C57BL/6 or BALB/c, depending on the peptide specificity, are injected with the various OVA constructs in the presence or absence of adjuvant (Titermax, Sigma) along with appropriate control groups. […] HA-Multiscreen plates were coated with rat-anti-mouse IFN-g antibody (MabTech). […] Spots were counted using a computer assisted video image analyzer with KS ELISPOT 4.0 software (Carol Zeiss Vision, Germany). […]
endpoint-label: stimulation of CD8+ T cells that cross react with the native sequence

[
  {
    "residues": "CMTWNQMNL [WTI-235]",
    "result-value": "unable"
  },
  {
    "residues": "SCLESQPTI [WTI-136]",
    "result-value": "unable"
  },
  {
    "residues": "ALLPAVSSL [WTI-10]",
    "result-value": "unable"
  }
]
